meta.source: the kinase profiling compilation of Christmann-Franck et al. (2016)

Target: CDK5 CDK5R1 p25 (human) (UniProt Q00535+Q15078)
Sequence (Q00535 whole entry, looked up): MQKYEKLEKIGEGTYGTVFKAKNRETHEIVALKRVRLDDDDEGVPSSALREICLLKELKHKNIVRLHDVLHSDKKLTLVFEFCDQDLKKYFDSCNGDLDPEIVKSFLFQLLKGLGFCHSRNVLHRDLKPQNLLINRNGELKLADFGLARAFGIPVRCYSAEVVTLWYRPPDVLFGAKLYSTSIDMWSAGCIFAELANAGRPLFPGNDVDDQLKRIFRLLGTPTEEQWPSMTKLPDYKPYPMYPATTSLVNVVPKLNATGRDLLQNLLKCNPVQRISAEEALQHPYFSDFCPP
Sequence (Q15078 whole entry, looked up): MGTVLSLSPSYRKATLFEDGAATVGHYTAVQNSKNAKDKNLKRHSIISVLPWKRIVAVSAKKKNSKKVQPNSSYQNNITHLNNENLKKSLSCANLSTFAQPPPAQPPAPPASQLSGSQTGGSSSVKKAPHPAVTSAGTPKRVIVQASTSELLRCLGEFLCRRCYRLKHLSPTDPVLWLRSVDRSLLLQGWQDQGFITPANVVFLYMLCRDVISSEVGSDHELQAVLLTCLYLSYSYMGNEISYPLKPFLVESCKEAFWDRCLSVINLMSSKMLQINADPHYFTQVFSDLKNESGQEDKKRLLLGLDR
Assay: radiometric filter-binding kinase assay, Kinase HotSpot
Conditions: compound 0.5 µM; ATP 10 µM
Each record is given TRUE if its reported residual activity is strictly below 90%. Records at or above 90% are given FALSE.

• CNC(=O)c1cc(Oc2ccc(NC(=O)Nc3ccc(Cl)c(C(F)(F)F)c3)cc2)ccn1 = FALSE
• Cc1[nH]c(/C=C2\C(=O)Nc3ccc(S(=O)(=O)N(C)c4cccc(Cl)c4)cc32)c(C)c1C(=O)N1CCN(C)CC1 = TRUE
• COc1cc2ncnc(Nc3cccc(Cl)c3)c2cc1OC = TRUE
• O=C(Nc1cccc(Nc2nccc(Nc3cccc(C(F)(F)F)c3)n2)c1)C1CC1 = FALSE
• CCN(CC)CCNC(=O)c1c(C)[nH]c(/C=C2\C(=O)Nc3ccc(Cl)cc32)c1C = FALSE
• Nc1cccc(-c2cc3c(Oc4cccc(O)c4)ncnc3[nH]2)c1 = FALSE
• Cc1ccc(Nc2nccc(N(C)c3ccc4c(C)n(C)nc4c3)n2)cc1S(N)(=O)=O = FALSE
